Target: glutathione-S-transferase (GST) tagged LXRalpha LBD (ligand binding domain) (Homo sapiens, UniProt Q13133)
Construct: purchased Invitrogen pv4655
Sequence (Q13133 209-447 limits assumed): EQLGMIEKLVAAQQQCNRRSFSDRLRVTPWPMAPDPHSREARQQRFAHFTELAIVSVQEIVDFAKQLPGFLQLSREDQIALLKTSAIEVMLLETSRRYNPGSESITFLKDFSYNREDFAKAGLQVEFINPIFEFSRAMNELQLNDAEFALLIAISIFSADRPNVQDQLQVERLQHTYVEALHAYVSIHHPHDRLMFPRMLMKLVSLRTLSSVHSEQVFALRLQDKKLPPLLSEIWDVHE
Experiment: LanthaScreen TR-FRET Liver X Receptor Coactivator Assay, co-activator recruitment to LXRalpha LBD
Assay type: biochemical
Conditions: efficacy in relation to reference dual agonist T0901317; read-out: LXR alpha Activity @ max dose
I'd be grateful if you could share measured Emax for these entries.
One number for each entry, in %.

- compound.string: "COc1cccc(S(=O)(=O)N2CC(CC3CCN(c4ccc(C(=O)N(C)C)c(Cl)c4)CC3)C2)c1"
  u: "%"
  Emax: 26

Fill in Emax for each of the 6 compounds listed.
1. CN(C)C(=O)c1ccc(N2CCC(CC3CCN(S(=O)(=O)c4ccccc4F)CC3)CC2)cc1Cl
2. COc1cccc(CS(=O)(=O)N2CC(CC3CCN(c4ccc(C(=O)N(C)C)c(Cl)n4)CC3)C2)c1
3. CCOc1cccc([C@@](O)(C(=O)N2CCC(CC3CCN(c4ccc(C(N)=O)c(Cl)c4)CC3)CC2)C(F)(F)F)c1
4. COc1cccc(S(=O)(=O)N2CCC(CC3CCN(c4ccc(C(=O)N(C)C)c(Cl)c4)CC3)CC2)c1
5. CN(C)C(=O)c1ccc(N2CCC(CC3CCN(S(=O)(=O)c4cc(F)ccc4F)CC3)CC2)cc1Cl
6. CN(C)C(=O)c1ccc(N2CCC(CC3CCN(S(=O)(=O)c4cc(F)cc(C(F)(F)F)c4)CC3)CC2)cc1Cl

Marked response:
[46, 5, 12, 23, 33, 0]

Reference for the values: patent US10752587B2
